Cited source: patent US9097667B2

assay: Absorption and emission spectra of the dyes (λabs/λem in H2O); format: physicochemical; details: Table 5, coumarin-based fluorescent groups
Reported endpoint: λabs (nm)

Structure notation	Reported endpoint	Observed value
COCCOCCOCCOCCOCCOCCOCCOCCOCCOCCOCCOCCN(CCCCCC(=O)ON1C(=O)CCC1=O)C(=O)Cc1c(C)c2cc(S(=O)(=O)O)c(N)cc2oc1=O	λabs	346
COCCOCCOCCOCCOCCOCCOCCOCCOCCOCCOCCOCCN(CCCCCC(=O)ON1C(=O)CCC1=O)C(=O)c1cc2cc(F)c(O)c(F)c2oc1=O	λabs	416
C=C(Cc1c(C)c2ccc(N)cc2oc1=O)N(CCCCCC(=O)ON1C(=O)CCC1=O)CCOCCOCCOCCOCCOCCOCCOCCOCCOCCOCCOCCOC	λabs	353
COCCOCCOCCOCCOCCOCCOCCOCCOCCOCCOCCOCCOCCOCCOCCOCCOCCOCCOCCOCCOCCOCCOCCOCCN(CCCCCC(=O)ON1C(=O)CCC1=O)C(=O)CCCCCN1c2cc3oc(=O)cc(C(F)(F)F)c3cc2C(CS(=O)(=O)O)=CC1(C)C	λabs	430
